targetDesc: T1, recombinant human IGSF8 extracellular domain tagged by a human Fc region (IGSF8-hFc) (human, UniProt Q969P0 28-579, biotin label in Examples 17, 18 and 28 (site not given))
T1 construct: also called IGSF8-Fc fusion protein; IGSF8-hFc-biotin; not shown: human Fc region
T1 sequence: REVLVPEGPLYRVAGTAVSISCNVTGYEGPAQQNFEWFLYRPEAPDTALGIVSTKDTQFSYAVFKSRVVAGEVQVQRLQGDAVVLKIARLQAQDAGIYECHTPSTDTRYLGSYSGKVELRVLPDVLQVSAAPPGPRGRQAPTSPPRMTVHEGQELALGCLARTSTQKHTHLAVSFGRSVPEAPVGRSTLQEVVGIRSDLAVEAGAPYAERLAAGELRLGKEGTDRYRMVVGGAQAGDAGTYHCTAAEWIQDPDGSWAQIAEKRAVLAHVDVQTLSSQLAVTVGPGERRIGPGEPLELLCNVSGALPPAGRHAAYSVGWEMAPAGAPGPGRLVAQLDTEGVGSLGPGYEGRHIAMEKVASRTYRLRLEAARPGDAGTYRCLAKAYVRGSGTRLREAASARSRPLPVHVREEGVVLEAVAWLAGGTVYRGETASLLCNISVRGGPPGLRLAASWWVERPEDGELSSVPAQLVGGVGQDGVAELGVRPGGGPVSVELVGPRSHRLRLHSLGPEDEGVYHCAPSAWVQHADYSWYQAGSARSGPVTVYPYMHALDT
methodSummary: SPR, Ab captured
measuredParameter: pKd
To interpret pKd, take it as minus log10 of a concentration measured in moles per litre.

Q: What does the data say about its pKd? Entry: L2-03 (antibody, V domains shown) VH: EVQLVESGGGLEQPGGSLRLSCAGSGFTFRDYAMTWVRQAPGKGLEWVSSISGSGGSTYYADSVKGRFTISRDNSKNTLYLQMNSLRAEDTAIYYCARGEYSSGWPSWFDPWGQGTLVTVSS VL: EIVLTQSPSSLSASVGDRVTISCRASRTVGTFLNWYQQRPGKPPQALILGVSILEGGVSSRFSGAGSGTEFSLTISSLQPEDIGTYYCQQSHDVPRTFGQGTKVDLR
Result: 8.49

Q: What does the data say about its pKd? Entry: L1-04 (antibody, V domains shown) VH: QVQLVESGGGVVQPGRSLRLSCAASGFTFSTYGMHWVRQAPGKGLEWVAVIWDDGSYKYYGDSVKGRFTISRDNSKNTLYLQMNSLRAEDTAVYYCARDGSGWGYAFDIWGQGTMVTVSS VL: DIQLTQSPSSLSASVGDRVTITCQASQDISEYLNWYQHKPGKAPNPLVFGSPNLETGVPPRFSATGSGTDFSLTITSLQPEDFATYYCQQYDSFPYTFGQGTRLDIK
Result: 8.13

Q: What does the data say about its pKd? Entry: L2VH-T35S (antibody, V domains shown) VH: EVQLVESGGGLEQPGGSLRLSCAGSGFTFRDYAMSWVRQAPGKGLEWVSSISGSGGNTYYADSVKGRFTISRDNSKNTLYLQMNSLRAEDTAIYYCARGEYSSGWPSWFDPWGQGTLVTVSS VL: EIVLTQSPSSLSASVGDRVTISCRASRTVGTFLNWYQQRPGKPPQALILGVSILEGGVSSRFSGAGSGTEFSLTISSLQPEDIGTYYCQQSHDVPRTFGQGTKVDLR
Result: 7.64
